Target: HNF4alpha2 (COS-7 nuclear extract) (Homo sapiens, UniProt P41235 1-474)
Sequence: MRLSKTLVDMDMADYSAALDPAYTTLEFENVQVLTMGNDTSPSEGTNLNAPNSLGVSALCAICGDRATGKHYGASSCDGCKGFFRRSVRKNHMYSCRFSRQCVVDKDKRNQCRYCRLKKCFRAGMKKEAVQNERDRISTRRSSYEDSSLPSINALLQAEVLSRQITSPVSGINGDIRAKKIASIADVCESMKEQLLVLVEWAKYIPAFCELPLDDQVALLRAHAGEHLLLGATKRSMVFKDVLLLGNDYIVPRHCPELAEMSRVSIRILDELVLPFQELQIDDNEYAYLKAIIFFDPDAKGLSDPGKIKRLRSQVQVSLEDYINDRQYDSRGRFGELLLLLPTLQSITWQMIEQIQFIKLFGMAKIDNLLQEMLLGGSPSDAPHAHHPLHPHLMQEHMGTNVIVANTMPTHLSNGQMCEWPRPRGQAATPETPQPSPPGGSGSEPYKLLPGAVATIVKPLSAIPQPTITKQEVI
Assay: protein-binding microarray; COS-7 nuclear extract on double-stranded Agilent 4x180k PBM; binding buffer, salt, pH and temperature not given in the material; high values mean tight binding
Settings: chain copies: 2; label: 3' end of strand 1 on the slide; dsDNA, one strand shown
In all, about 18,000 sequences were measured (“log2 normalized intensity”: median about 0.39, highest 2% from about 6.6 on). The sample holds the highest values, similar sequences and a random draw of the others, so the mix is not that of the screen.
Measured binding signal of individual entries
Value Type: binding signal (log2 normalized intensity)

CAAACAGCTTAGGGTTCAAACTCCAGCTCTGCCTAGGGAGATTAGAGTATCGGTCGA
3.29
AGTGGACTTTGACCTTGTTTTCAATGACTAGCCTAGGGAGATTAGAGTATCGGTCGA
7.31
GCCAGGACAAAGGTCCTGTGGCCTGGGGAGGCCTAGGGAGATTAGAGTATCGGTCGA
0.557
AGACAACCTTTGGTCACTTGTAAGATACTGGCCTAGGGAGATTAGAGTATCGGTCGA
2.43
ATCTTCCTCCCCCCTTGGCTACATGTTTGTGCCTAGGGAGATTAGAGTATCGGTCGA
3.7
AAGAAATAAAAACAGCTGGGTTCCAAAAGGGCCTAGGGAGATTAGAGTATCGGTCGA
0.155
AAGACTTCCTGGCCTCTCTGCAAATTTGCCGCCTAGGGAGATTAGAGTATCGGTCGA
-0.993
CTTTGTGGCAGGAGGAGCTGTTTGACATCCGCCTAGGGAGATTAGAGTATCGGTCGA
0.0869
CACAAGCTGGGTCAACATCAGCCCTCCTAGGCCTAGGGAGATTAGAGTATCGGTCGA
1.49

====

Target: HNF4alpha2 (COS-7 nuclear extract) (Homo sapiens, UniProt P41235 1-474)
Sequence: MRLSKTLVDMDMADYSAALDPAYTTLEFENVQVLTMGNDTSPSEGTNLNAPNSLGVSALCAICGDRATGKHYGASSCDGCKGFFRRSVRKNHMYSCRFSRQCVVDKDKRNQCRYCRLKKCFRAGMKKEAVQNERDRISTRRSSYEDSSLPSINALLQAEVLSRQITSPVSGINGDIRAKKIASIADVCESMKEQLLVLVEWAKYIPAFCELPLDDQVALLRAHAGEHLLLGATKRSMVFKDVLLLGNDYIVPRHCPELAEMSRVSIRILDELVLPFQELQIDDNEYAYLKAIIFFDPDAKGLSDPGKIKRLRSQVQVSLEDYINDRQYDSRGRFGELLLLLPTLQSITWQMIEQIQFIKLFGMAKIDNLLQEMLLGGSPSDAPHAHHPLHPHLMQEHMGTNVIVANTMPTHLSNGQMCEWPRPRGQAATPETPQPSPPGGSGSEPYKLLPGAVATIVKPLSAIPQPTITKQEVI
Assay: protein-binding microarray; COS-7 nuclear extract on double-stranded Agilent 4x180k PBM; binding buffer, salt, pH and temperature not given in the material; high values mean tight binding
Details: chain copies: 2; label: 3' end of strand 1 on the slide; dsDNA, one strand shown
Over roughly 18,000 sequences, “log2 normalized intensity” has its median near 0.39; the highest 2% begin near 6.6. Shown is part of a subset that was picked to be rich in the highest values.
Value Type: binding signal (log2 normalized intensity)

TCCTATTCGGTGCTGACCTTTGTTCACATTGCCTAGGGAGATTAGAGTATCGGTCGA
5.89
TGCTCAGGGAGAAGCAAATATGTGTCCTCTGCCTAGGGAGATTAGAGTATCGGTCGA
0.314
CTTTGTTTACTTAACCTTTGATCATATGCAGCCTAGGGAGATTAGAGTATCGGTCGA
5.18
ACTTTAACCTTTAGATTACTAGGAATTGATGCCTAGGGAGATTAGAGTATCGGTCGA
0.914
CCTGGCCATTTCTCAGGTTGTGTTTGCAGTGCCTAGGGAGATTAGAGTATCGGTCGA
1.53
ACCTGGAACTGAAAGAGACCTTTGACATCAGCCTAGGGAGATTAGAGTATCGGTCGA
4.5
CTCTTCAGAATGGCCTGCCCATCCCCCCAAGCCTAGGGAGATTAGAGTATCGGTCGA
5.18
CCTCCTGCCCTATGTCCTCCAGCTCTTGGGGCCTAGGGAGATTAGAGTATCGGTCGA
1.53
AGTCATGTCTTCATGCTTTCAGCCTCTCTGGCCTAGGGAGATTAGAGTATCGGTCGA
0.358
GAGCACTCATTCCTATTCGGTGCTGACCTTGCCTAGGGAGATTAGAGTATCGGTCGA
3.47
CTCATTCTTGGAATGCATTGCAAGTCGTATGCCTAGGGAGATTAGAGTATCGGTCGA
1.17
CGGGTATGTGGGGCGTGTGTTAGACTTTGGGCCTAGGGAGATTAGAGTATCGGTCGA
4.22
AAGGTGTATGTGGACTTTCAACTGCAGGGGGCCTAGGGAGATTAGAGTATCGGTCGA
3.47
TTTTTTCAAGTGTTAGCTGTTTCCAAATATGCCTAGGGAGATTAGAGTATCGGTCGA
1.42
TTGAAAGGGACTTAGAATCGAATTGTGAAAGCCTAGGGAGATTAGAGTATCGGTCGA
-0.196
TAGACTTTGGACCTGGCCTGCGGGGTCAGGGCCTAGGGAGATTAGAGTATCGGTCGA
5.39
GTAGAGACCTGTCTTCCTGGTGACCTTTGTGCCTAGGGAGATTAGAGTATCGGTCGA
7.11
GTGGCTACCTGTGCAGATATTTAACCTTTGGCCTAGGGAGATTAGAGTATCGGTCGA
4.11
GAACAGCAAGACTTTGGCCCTGCAGACTTTGCCTAGGGAGATTAGAGTATCGGTCGA
2.09
TCTGCAGCAGATGGCCAGCCTTTGGACTTTGCCTAGGGAGATTAGAGTATCGGTCGA
7.15
TTGCACTGTGCTTTGTTTACTTAACCTTTGGCCTAGGGAGATTAGAGTATCGGTCGA
4.05
GGCCTCCCCATCCTCATGACAGTACCTCTCGCCTAGGGAGATTAGAGTATCGGTCGA
2.32
GATTGGACTTTGGCCTGTGAATCCACATTCGCCTAGGGAGATTAGAGTATCGGTCGA
5.98
AAAGAGATTGGACTTTGGCCTGTGAATCCAGCCTAGGGAGATTAGAGTATCGGTCGA
8.37
TGAATTCTGCAGCAGATGGCCAGCCTTTGGGCCTAGGGAGATTAGAGTATCGGTCGA
-0.936
CTTCTGCCCCCGCAGACCCAGTCTTAGGGAGCCTAGGGAGATTAGAGTATCGGTCGA
4.14
ACACCGTATCATCAAACCTGTTATTTGCGCGCCTAGGGAGATTAGAGTATCGGTCGA
1.25
GACCTGTCTTCCTGGTGACCTTTGTTTGGTGCCTAGGGAGATTAGAGTATCGGTCGA
4.94
GTCAAGTAGAGACCTGTCTTCCTGGTGACCGCCTAGGGAGATTAGAGTATCGGTCGA
2.19
GGGATGGACTTTGGCCCTCAGCCCAATGTGGCCTAGGGAGATTAGAGTATCGGTCGA
6.2
CAGTTATCAGACAGAGGAATTCAGCAGGATGCCTAGGGAGATTAGAGTATCGGTCGA
-0.611
GTTAAAGTTGCCTGATGACAACTGAATGTGGCCTAGGGAGATTAGAGTATCGGTCGA
0.26
GCGGCTTCAGAGGCCAGCAGTGCTTTTCCCGCCTAGGGAGATTAGAGTATCGGTCGA
-0.963
TTCATCCCCACCCCCACTGCCTGACCCCAAGCCTAGGGAGATTAGAGTATCGGTCGA
7.59
CTGTGCTTTGTTTACTTAACCTTTGATCATGCCTAGGGAGATTAGAGTATCGGTCGA
7.05
CTCATTCCTATTCGGTGCTGACCTTTGTTCGCCTAGGGAGATTAGAGTATCGGTCGA
7.77
CAAACAGACCTCCCCCAACTTACTTAGTGGGCCTAGGGAGATTAGAGTATCGGTCGA
1.85
